Target: T1, human LGR7/RXFP1 receptor (human, UniProt Q9HBX9 1-757)
T1 sequence (looked up): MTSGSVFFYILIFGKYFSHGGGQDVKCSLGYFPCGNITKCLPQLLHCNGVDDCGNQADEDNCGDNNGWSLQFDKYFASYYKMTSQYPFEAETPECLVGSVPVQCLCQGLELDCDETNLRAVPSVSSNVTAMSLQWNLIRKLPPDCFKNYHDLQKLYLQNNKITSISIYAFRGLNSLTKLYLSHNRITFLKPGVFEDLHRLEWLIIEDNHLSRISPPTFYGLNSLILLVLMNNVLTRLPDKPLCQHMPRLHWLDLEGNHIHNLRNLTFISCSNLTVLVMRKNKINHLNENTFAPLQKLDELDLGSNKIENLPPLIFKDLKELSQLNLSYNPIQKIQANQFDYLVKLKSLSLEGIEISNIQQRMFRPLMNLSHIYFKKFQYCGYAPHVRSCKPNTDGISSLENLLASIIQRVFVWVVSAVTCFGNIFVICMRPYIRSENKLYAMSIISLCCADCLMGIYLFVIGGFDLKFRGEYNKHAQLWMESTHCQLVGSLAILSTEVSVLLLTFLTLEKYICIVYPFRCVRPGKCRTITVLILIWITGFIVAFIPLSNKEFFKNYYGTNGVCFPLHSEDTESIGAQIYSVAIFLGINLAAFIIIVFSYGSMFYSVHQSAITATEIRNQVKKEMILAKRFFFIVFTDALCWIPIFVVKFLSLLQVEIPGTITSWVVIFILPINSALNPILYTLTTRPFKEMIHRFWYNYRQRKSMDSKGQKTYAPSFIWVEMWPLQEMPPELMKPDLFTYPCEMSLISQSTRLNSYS
Assay: cell-based or functional assay
readoutName: EC50 (M), CRE-luciferase reporter in CHO-CRE-LGR7 cells
Give a bare numeral; the unit M is implied.

Worked examples follow.
binder	valueMeasured
human Relaxin 2 (ligand) chain 1: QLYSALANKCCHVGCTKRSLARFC chain 2: SWMEEVIKLCGRELVRAQIAICGMSTWS	3.5e-11
scR-Fc 13 (Fc fusion) HHHHHHPTCPTCHKCPVPELLGGPSVFIFPPKPKDILLISQNAKVTCVVVDVSEEEPDVQFSWFVNNVEVHTAQTQPREEQYNSTFRVVSALPIQHQDWMSGKEFKCKVNNKALPSPIEKTISKPKGLVRKPQVYVMGPPTEQLTEQTVSLTCLTSGFLPNDIGVEWTSNGHIEKNYKNTEPVMDSDGSFFMYSKLNVERSRWDSRAPFVCSVVHEGLHNHHVEKSISRPPGKGGSGGSGGSPQLYSALANKCCHVGCTKRSLARFCGGGSGGGSGSWMEEVIKLCGRELVRAQIAICGMSTWS	8.9e-10
scR-Fc 9 (Fc fusion) QLYSALANKCCHVGCTKRSLARFCGGGSGGGSGSWMEEVIKLCGRELVRAQIAICGMSTWSGGSGGSPTCPTCHKCPVPELLGGPSVFIFPPKPKDILLISQNAKVTCVVVDVSEEEPDVQFSWFVNNVEVHTAQTQPREEQYNSTFRVVSALPIQHQDWMSGKEFKCKVNNKALPSPIEKTISKPKGLVRKPQVYVMGPPTEQLTEQTVSLTCLTSGFLPNDIGVEWTSNGHIEKNYKNTEPVMDSDGSFFMYSKLNVERSRWDSRAPFVCSVVHEGLHNHHVEKSISRPPGKHHHHHH	9.9e-09
scR-Fc 12 (Fc fusion) HHHHHHPTCPTCHKCPVPELLGGPSVFIFPPKPKDILLISQNAKVTCVVVDVSEEEPDVQFSWFVNNVEVHTAQTQPREEQYNSTFRVVSALPIQHQDWMSGKEFKCKVNNKALPSPIEKTISKPKGLVRKPQVYVMGPPTEQLTEQTVSLTCLTSGFLPNDIGVEWTSNGHIEKNYKNTEPVMDSDGSFFMYSKLNVERSRWDSRAPFVCSVVHEGLHNHHVEKSISRPPGKGGSGGSPQLYSALANKCCHVGCTKRSLARFCGGGSGGGSGSWMEEVIKLCGRELVRAQIAICGMSTWS	9.5e-10

Now consider the entry below.
Problem: Kindly indicate its recorded EC50 (M), CRE-luciferase reporter in CHO-CRE-LGR7 cells. Item: scR-Fc 10 (Fc fusion) QLYSALANKCCHVGCTKRSLARFCGGGSGGGSGSWMEEVIKLCGRELVRAQIAICGMSTWSGGSGGSGGSPTCPTCHKCPVPELLGGPSVFIFPPKPKDILLISQNAKVTCVVVDVSEEEPDVQFSWFVNNVEVHTAQTQPREEQYNSTFRVVSALPIQHQDWMSGKEFKCKVNNKALPSPIEKTISKPKGLVRKPQVYVMGPPTEQLTEQTVSLTCLTSGFLPNDIGVEWTSNGHIEKNYKNTEPVMDSDGSFFMYSKLNVERSRWDSRAPFVCSVVHEGLHNHHVEKSISRPPGKHHHHHH
Solution: 4.8e-09
